# Conditions used: accelerated conditions; HPLC; 3 mos
Assay endpoint: Content (%)
Numbers only, in %.

Known Content results, listed for orientation:
C=CC(=O)Nc1cc(Nc2nccc(-n3cc(CN(C)C)c(-c4ccccc4)n3)n2)c(OC)cc1N1CCOCC1.O=C(O)CC(O)(CC(=O)O)C(=O)O [C. Ex. 3]	101.0
C=CC(=O)Nc1cc(Nc2nccc(-n3cc(CN(C)C)c(-c4ccccc4)n3)n2)c(OC)cc1N1CCOCC1.Cl [C. Ex. 2]	98.3
C=CC(=O)Nc1cc(Nc2nccc(-n3cc(CN(C)C)c(-c4ccccc4)n3)n2)c(OC)cc1N1CCOCC1.CCS(=O)(=O)O [C. Ex. 4]	95.1

Kindly consider the entry below.
Problem: Report Content for C=CC(=O)Nc1cc(Nc2nccc(-n3cc(CN(C)C)c(-c4ccccc4)n3)n2)c(OC)cc1N1CCOCC1 [Ex. 1] please.
Result: 98.9
